This collection of values is drawn from patent US20170165338A1.

# Tgt: HLA-A*02 (human)
# Assay explanation: UV-exchange b2m ELISA
Exercise: state measured peptide exchange yield for each of the binders provided.

The measured peptide exchange yield associated with ALLAFFPGL reads 50 to 75%

The measured peptide exchange yield associated with VLHSKFWVV reads 50 to 75%

The measured peptide exchange yield associated with RLMEENWNA reads 50 to 75%

The measured peptide exchange yield associated with RLQDILWFL reads > 75%
